Experiment: Cytotoxicity against human MRC5 cells assessed as reduction in cell viability measured after 72 hrs by alamar blue assay
Assay type: toxicity, cell-based
READOUT: CC50 at 72 h (µM)

>>> df
                                   molecule  result_value
0  C[C@H](NC(=O)OCc1ccccc1)C(=O)Nc1ccc(C2S/C(=N\c3cccc(F)c3)N(Cc3ccco3)C2=O)cc1 (stereo partly specified)            41

* * *

Test system: Bovine viral diarrhea virus 1
Assay: Antiviral activity against Bovine viral diarrhea virus 1
Type: functional, organism-based
Conditions: Bovine viral diarrhea virus isolates and strains
pEC50: −log10 of the molar value.
READOUT: pEC50

                                   compound  result_value
0  C[C@H](NC(=O)OCc1ccccc1)C(=O)Nc1ccc(C2S/C(=N\c3cccc(F)c3)N(Cc3ccco3)C2=O)cc1 (stereo partly specified)          4.77

* * *

Assay: in vivo
Conditions: cynomolgus monkey, po, 3 mg/kg
READOUT: bioavailability

SMILES_STRING	RESULT_VALUE
C=C[C@@H]1C[C@]1(NC(=O)[C@@H]1C[C@@H](Oc2ncc(OC)c3ccc(Cl)cc23)CN1C(=O)[C@@H](NC(=O)OC(C)(C)C)C(C)(C)C)C(=O)NS(=O)(=O)C1CC1	11%

* * *

Molecular target: UniProtKB O75469
Sequence (O75469 whole entry): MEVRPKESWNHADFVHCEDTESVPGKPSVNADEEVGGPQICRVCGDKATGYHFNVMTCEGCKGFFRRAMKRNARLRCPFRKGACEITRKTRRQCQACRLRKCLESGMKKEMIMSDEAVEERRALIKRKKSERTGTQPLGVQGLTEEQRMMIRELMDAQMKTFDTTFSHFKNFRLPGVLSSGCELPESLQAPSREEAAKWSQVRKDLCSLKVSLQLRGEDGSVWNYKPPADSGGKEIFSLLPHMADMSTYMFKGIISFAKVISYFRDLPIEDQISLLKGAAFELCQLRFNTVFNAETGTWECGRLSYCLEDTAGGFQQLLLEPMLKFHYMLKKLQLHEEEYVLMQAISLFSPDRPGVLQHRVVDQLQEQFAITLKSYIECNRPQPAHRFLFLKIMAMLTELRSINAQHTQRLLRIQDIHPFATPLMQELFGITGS
READOUT: IC50

>>> print(df.to_string())
                              smiles_string  result_value
0  COc1ccc2c(c1)C=C(C(=O)N1C[C@@H](C)O[C@@H](C)C1)Cn1c-2c(C2CCCCC2)c2ccc(C(=O)NS(=O)(=O)N(C)C)cc21       > 10 µM

* * *

Assay: Cytotoxicity against African green monkey Vero cells assessed as reduction in cell viability […] after 72 hrs by alamar blue assay
Assay type: toxicity, cell-based
Conditions: chlorocebus sabaeus
READOUT: CC50 at 72 h

>>> print(df.to_string())
                                   molecule  result_value
0  C[C@H](NC(=O)OCc1ccccc1)C(=O)Nc1ccc(C2S/C(=N\c3cccc(F)c3)N(Cc3ccco3)C2=O)cc1 (stereo partly specified)      > 150 µM

* * *

System: Hepatitis C virus
Test: Inhibition of HCV genotype 3a
Format: functional, organism-based, Hepacivirus hominis
READOUT: IC50 (nM)

SMILES_STRING	RESULT_VALUE
C=C[C@@H]1C[C@]1(NC(=O)[C@@H]1C[C@@H](Oc2ncc(OC)c3ccc(Cl)cc23)CN1C(=O)[C@@H](NC(=O)OC(C)(C)C)C(C)(C)C)C(=O)NS(=O)(=O)C1CC1	320

* * *

System: Hepatitis C virus
Test: Antiviral activity against Hepatitis C virus
Assay type: functional, organism-based, Hepacivirus hominis
READOUT: EC50 (nM)

>>> print(df.to_string())
                              smiles_string  value_unit  result_value
0  COc1ccc2c(O[C@@H]3C[C@H]4C(=O)N[C@]5(C(=O)O)C[C@H]5/C=C\CCCCC[C@H](NC(=O)OC(C)(C)C)C(=O)N4C3)cc(-c3ccccc3)nc2c1          nM           1.2

* * *

Experiment: AUC in cynomolgus monkey at 3mg/kg, po measured after 24 hrs by LC-MS/MS analysis
Assay type: ADME, organism-based, Macaca fascicularis
Parameters: time 24 hrs, route po
Conditions: in vivo

SMILES_STRING	VALUE_UNIT	AUC at 24 h
C=C[C@@H]1C[C@]1(NC(=O)[C@@H]1C[C@@H](Oc2ncc(OC)c3ccc(Cl)cc23)CN1C(=O)[C@@H](NC(=O)OC(C)(C)C)C(C)(C)C)C(=O)NS(=O)(=O)C1CC1	µM·h	0.41

* * *

Experiment: Drug concentration in cynomolgus monkey liver at 10 mg/kg, po measured after 24 hrs by LC-MS/MS analysis
Assay type: ADME, organism-based, Macaca fascicularis
Conditions: read-out: Ct
READOUT: concentration at 24 h

SMILES_STRING	RESULT_VALUE
C=C[C@@H]1C[C@]1(NC(=O)[C@@H]1C[C@@H](Oc2ncc(OC)c3ccc(Cl)cc23)CN1C(=O)[C@@H](NC(=O)OC(C)(C)C)C(C)(C)C)C(=O)NS(=O)(=O)C1CC1	440 nM

* * *

Experiment: Half life in dog liver microsomes
Format: ADME, Canis lupus familiaris, Microsome

SMILES_STRING	half-life
C=C[C@@H]1C[C@]1(NC(=O)[C@@H]1C[C@@H](Oc2cc(-c3ccccc3)nc3cc(OC)ccc23)CN1C(=O)[C@@H](NC(=O)OC(C)(C)C)C(C)(C)C)C(=O)NS(=O)(=O)C1CC1	2.83 h

* * *

Target: Hepatitis C virus serine protease, NS3/NS4A (Hepatitis C virus, UniProt A3EZI9+D2K2A8)
Sequence (D2K2A8 whole entry): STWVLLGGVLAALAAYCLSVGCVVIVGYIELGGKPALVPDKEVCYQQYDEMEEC
Sequence (A3EZI9 whole entry): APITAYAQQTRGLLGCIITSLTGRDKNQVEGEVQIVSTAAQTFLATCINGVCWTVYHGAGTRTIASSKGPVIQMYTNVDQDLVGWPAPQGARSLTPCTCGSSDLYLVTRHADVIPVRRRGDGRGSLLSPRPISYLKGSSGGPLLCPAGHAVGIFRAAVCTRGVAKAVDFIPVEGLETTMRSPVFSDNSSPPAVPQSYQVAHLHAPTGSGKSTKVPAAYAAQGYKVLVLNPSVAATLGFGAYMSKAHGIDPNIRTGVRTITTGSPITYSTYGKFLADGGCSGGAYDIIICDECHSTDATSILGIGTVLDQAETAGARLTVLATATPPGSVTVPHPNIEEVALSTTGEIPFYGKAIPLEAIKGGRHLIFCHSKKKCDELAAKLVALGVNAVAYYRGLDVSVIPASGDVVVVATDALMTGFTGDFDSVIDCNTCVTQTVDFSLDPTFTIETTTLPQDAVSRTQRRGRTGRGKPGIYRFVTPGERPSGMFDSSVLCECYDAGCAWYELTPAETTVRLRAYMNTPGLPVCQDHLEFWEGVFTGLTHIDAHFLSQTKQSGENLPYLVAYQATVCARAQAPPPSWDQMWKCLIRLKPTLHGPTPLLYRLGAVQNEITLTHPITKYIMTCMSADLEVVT
Experiment: Inhibition of HCV NS4A-NS3 protease
Format: protein-complex assay, Hepacivirus hominis
Square brackets hold non-standard residues; d marks the D form. Peptide text beside a SMILES is read from it. * marks the point of attachment. CH2(1-naphthyl) = c1ccc2c(C*)cccc2c1; Hyp = O=C(O)[C@@H]1C[C@@H](O)CN1; Chg = N[C@H](C(=O)O)C1CCCCC1; Ac3c = NC1(C(=O)O)CC1
Below is a list of entries, each paired with its recorded IC50 value.

COMPOUND	IC50 (µM)
CC(=O)N[C@H](C(=O)N[C@H](C(=O)N1C[C@H](OCc2cccc3ccccc23)C[C@H]1C(=O)NC1(C(=O)O)CC1)C(C)C)C1CCCCC1 (Ac-[Chg]V[Hyp](CH2(1-naphthyl))[Ac3c]-OH)	3.5
COc1ccc2c(O[C@@H]3C[C@H]4C(=O)N[C@]5(C(=O)O)C[C@H]5/C=C\CCCCC[C@H](NC(=O)OC(C)(C)C)C(=O)N4C3)cc(-c3ccccc3)nc2c1	0.003

* * *

System: Hepatitis C virus
Assay: Inhibition of HCV genotype 1b
Assay type: functional, organism-based, Hepacivirus hominis
pIC50: −log10 of the molar value.

SMILES_STRING	STUDY_SYSTEM	pIC50
C=C[C@@H]1C[C@]1(NC(=O)[C@@H]1C[C@@H](Oc2ncc(OC)c3ccc(Cl)cc23)CN1C(=O)[C@@H](NC(=O)OC(C)(C)C)C(C)(C)C)C(=O)NS(=O)(=O)C1CC1	Hepatitis C virus	9.52

* * *

Experiment: Drug concentration in Sprague-Dawley liver at 15 mg/kg, po measured after 24 hrs by LC-MS/MS analysis
Assay type: ADME, organism-based
Settings: rat, read-out: Ct
READOUT: concentration at 24 h (nM)

SMILES_STRING	READOUT	RESULT_VALUE
C=C[C@@H]1C[C@]1(NC(=O)[C@@H]1C[C@@H](Oc2ncc(OC)c3ccc(Cl)cc23)CN1C(=O)[C@@H](NC(=O)OC(C)(C)C)C(C)(C)C)C(=O)NS(=O)(=O)C1CC1	concentration at 24 h	1200

* * *

Experiment: in vivo
Conditions: male, Sprague-Dawley, rat, po, 15 mg/kg

SMILES_STRING	VALUE_UNIT	bioavailability
C=C[C@@H]1C[C@]1(NC(=O)[C@@H]1C[C@@H](Oc2ncc(OC)c3ccc(Cl)cc23)CN1C(=O)[C@@H](NC(=O)OC(C)(C)C)C(C)(C)C)C(=O)NS(=O)(=O)C1CC1	%	14

* * *

Assay: Drug concentration in Beagle dog plasma at 6 mg/kg, po measured after 24 hrs by LC-MS/MS analysis
Assay type: ADME, organism-based, Canis lupus familiaris

SMILES_STRING	concentration at 24 h / nM
C=C[C@@H]1C[C@]1(NC(=O)[C@@H]1C[C@@H](Oc2ncc(OC)c3ccc(Cl)cc23)CN1C(=O)[C@@H](NC(=O)OC(C)(C)C)C(C)(C)C)C(=O)NS(=O)(=O)C1CC1	6

* * *

Assay: in vivo
Settings: Sprague-Dawley, rat, iv, 5 mg/kg
Description: Half life in Sprague-Dawley rat at 5 mg/kg, iv measured after 24 hrs by HPLC method

SMILES_STRING	half-life at 24 h (min)
C=C[C@@H]1C[C@]1(NC(=O)[C@@H]1C[C@@H](Oc2ncc(OC)c3ccc(Cl)cc23)CN1C(=O)[C@@H](NC(=O)OC(C)(C)C)C(C)(C)C)C(=O)NS(=O)(=O)C1CC1	252

Hey, just so you know, these numbers are from ChEMBL document CHEMBL5252531.
